Recorded switch fluorescence ratio, one value per entry.
- Test system: ATP;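 also: ATP exposure 15 min at 22 °C before imaging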
- Run description: switch fluorescence ratio, 500 uM ATP over buffer (Cy3 cluster intensity, sum of 5 cycles each) (fold (ratio)); higher = stronger signal-on switching upon ATP binding; sequences stand for … in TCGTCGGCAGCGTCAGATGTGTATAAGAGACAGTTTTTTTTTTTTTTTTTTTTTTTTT…TC
- Condition: aptamer strand: ATP DNA aptamer (quencher-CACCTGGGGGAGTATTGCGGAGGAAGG + anchor), 100 nM annealed; ATP concentration: 500 uM

Here are 3 sequences together with their reported answers.
CATTTTGGGA = 0.979
ATATTTGTGG = 0.984
GCATTGTTTG = 0.995

Prompt line: // returns reported switch fluorescence ratio for input TCTGTAAGGT
Response line: 0.986

###

switch fluorescence ratio reference
- Test system: ATP;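 also: ATP exposure 15 min at 22 °C before imaging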
- Run description: switch fluorescence ratio, 500 uM ATP over buffer (Cy3 cluster intensity, sum of 5 cycles each) (fold (ratio)); higher = stronger signal-on switching upon ATP binding; sequences stand for … in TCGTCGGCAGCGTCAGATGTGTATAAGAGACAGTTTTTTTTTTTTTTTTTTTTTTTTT…TC
- Condition: aptamer strand: ATP DNA aptamer (quencher-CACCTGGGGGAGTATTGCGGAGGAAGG + anchor), 100 nM annealed; ATP concentration: 500 uM
Returns: the value as a bare number; no unit string appended.

Recorded results for 6 sequences are shown here.
TAAGCTTTGT = 0.99
AGATAAAAGG = 0.998
ATATGGGTTA = 0.991
GGGGTGATCA = 1.05
GCAATCATTC = 1.18
GACTTTTATA = 0.996

Prompt line: Return switch fluorescence ratio measured with ATP given this sequence: GATGTATTCG
Response line: 1

Prompt line: Cool, now AATGGCGGCC
Response line: 1.03

Prompt line: Let us now turn to TATACTGCGC
Response line: 1.07

Prompt line: Then ACGAAGGGAG ?
Response line: 1.02

Prompt line: Proceed to TTTTAGTATT
Response line: 0.997

Prompt line: And TAGGCTGTTA ?
Response line: 0.995

Prompt line: Field entry: TAGCTCCGTA
Response line: 1.09

Prompt line: Next up: TTTTTGTTT
Response line: 0.988

Prompt line: Note, next up: GGCTTGTGTA
Response line: 0.965

Prompt line: Same lookup for GGGCTGGGGC , please.
Response line: 0.997

Prompt line: Same again, this time with TGGCTAAACG
Response line: 0.992

Prompt line: Entry to check: ACGTGAGGTT
Response line: 1.01

Prompt line: Also, GTTGGGTCCC please.
Response line: 0.986

Prompt line: Here is the next sequence: AAGGGGGG
Response line: 0.994

Prompt line: Thanks! And TAGGCTTTTG ?
Response line: 1.03

Prompt line: Also, AGGGAGCCCG please.
Response line: 1.01

Prompt line: Then TGATAGGGTG ?
Response line: 1.03

Prompt line: Cool, now AGCTGTCGCT
Response line: 1.01

Prompt line: Same question for TGGGAGAGGG please.
Response line: 1.01

###

- System: ATP;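 also: ATP exposure 15 min at 22 °C before imaging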
- Run description: switch fluorescence ratio, 500 uM ATP over buffer (Cy3 cluster intensity, sum of 5 cycles each) (fold (ratio)); higher = stronger signal-on switching upon ATP binding; sequences stand for … in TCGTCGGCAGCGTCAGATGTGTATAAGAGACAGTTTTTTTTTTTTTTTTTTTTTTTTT…TC
- Condition: aptamer strand: ATP DNA aptamer (quencher-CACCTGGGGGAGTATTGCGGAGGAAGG + anchor), 100 nM annealed; ATP concentration: 500 uM
Recorded measurements of switch fluorescence ratio, one per entry
Give the value as a plain number.

Recorded results for 5 sequences are shown here.
TTGGAGTTTT = 1.01
ATTAATTTTG = 0.992
GAGGCGTCAA = 0.997
TGAGTGATGT = 1.01
TTGTTCGGAG = 1

Prompt line: What switch fluorescence ratio value was documented for this sequence, GAGCATTCCG ?
Response line: 1

Prompt line: Next sequence up: TTTTCATAAC
Response line: 1

FYI, the data here is from the supplement of paper PMC10126150.
